# protocol.details: Bioavailability enhancement of a drug/nutraceutical/herbal product given with bioenhancer (BE) to fasted rats; plasma drug level by HPLC, 0-24 hrs
# test.context: drug + piperine 8 mg/kg + BE from Zingiber officinale
endpoint: % Enhancement in bioavailability, Piperine + BE from Zingiber officinale

Quick request: % Enhancement in bioavailability, Piperine + BE from Zingiber officinale for each listed item, please.
1. CO[C@H]1/C=C/O[C@@]2(C)Oc3c(C)c(O)c4c(O)c(c(/C=N/N5CCN(C)CC5)c(O)c4c3C2=O)NC(=O)/C(C)=C\C=C\[C@H](C)[C@H](O)[C@@H](C)[C@@H](O)[C@@H](C)[C@H](OC(C)=O)[C@@H]1C [Rifampicin]
2. Cc1cn([C@H]2C[C@H](N=[N+]=[N-])[C@@H](CO)O2)c(=O)[nH]c1=O [Zidovudine]
3. CC(=O)N1CCN(c2ccc(OCC3COC(Cn4ccnc4)(c4ccc(Cl)cc4Cl)O3)cc2)CC1 (stereo not shown) [Ketoconazole]
4. CN(Cc1cc(Br)cc(Br)c1N)C1CCCCC1 [Bromhexine]

Completion:
98%
126%
100%
75%

====

# protocol.details: Bioavailability enhancement of a drug/nutraceutical/herbal product given with bioenhancer (BE) to fasted rats; plasma drug level by HPLC, 0-24 hrs
# test.context: drug + piperine 8 mg/kg + BE from Zingiber officinale
Kindly state % Enhancement in bioavailability, Piperine + BE from Zingiber officinale for each of the entries shown.
One number for each entry, in %.

1. Cc1nnc2n1-c1ccc(Cl)cc1C(c1ccccc1)=NC2 | 70

Quick request: % Enhancement in bioavailability, Piperine + BE from Zingiber officinale for each listed item, please.
1. Nc1ccc(S(=O)(=O)c2ccc(N)cc2)cc1
2. COc1cccc2c1C(=O)c1c(O)c3c(c(O)c1C2=O)C[C@@](O)(C(=O)CO)C[C@@H]3O[C@H]1C[C@H](N)[C@H](O)[C@H](C)O1
3. O=c1[nH]cc(F)c(=O)[nH]1

Completion:
1: 55; 2: 75; 3: 93

====

Kindly state % Enhancement in bioavailability, Piperine + BE from Zingiber officinale for each of the entries shown.
# protocol.details: Bioavailability enhancement of a drug/nutraceutical/herbal product given with bioenhancer (BE) to fasted rats; plasma drug level by HPLC, 0-24 hrs
# test.context: drug + piperine 8 mg/kg + BE from Zingiber officinale
Answers are plain numbers, in %.

Recorded results for 5 compounds are shown here.
1) CCc1cc(C(N)=S)ccn1 [Ethionamide] | 48
2) CC(C)(C)NCC(O)c1ccc(O)c(CO)c1 (stereo not drawn) | 92
3) CN/C(=N/CCSCc1nc[nH]c1C)NC#N | 76
4) CS(=O)(=O)Nc1ccc([N+](=O)[O-])cc1Oc1ccccc1 [Nimesulide] | 165
5) CN(Cc1cnc2nc(N)nc(N)c2n1)c1ccc(C(=O)N[C@@H](CCC(=O)O)C(=O)O)cc1 [Methotrexate] | 49

Quick request: % Enhancement in bioavailability, Piperine + BE from Zingiber officinale for each listed item, please.
1. CC1(C)S[C@@H]2[C@H](NC(=O)[C@H](N)c3ccc(O)cc3)C(=O)N2[C@H]1C(=O)O
2. Cn1c(=O)c2[nH]cnc2n(C)c1=O

Completion:
1. 90
2. 80

Quick request: % Enhancement in bioavailability, Piperine + BE from Zingiber officinale for each listed item, please.
1. NCCCC[C@H](N[C@@H](CCc1ccccc1)C(=O)O)C(=O)N1CCC[C@H]1C(=O)O
2. CC(C)NCC(O)COc1cccc2ccccc12 (stereo not drawn)

Completion:
100
104

====

Kindly state % Enhancement in bioavailability, Piperine + BE from Zingiber officinale for each of the entries shown.
# test.context: rat, in vivo
Give bare numbers, in %.

Recorded results for 3 compounds are shown here.
1. CC[C@H]1OC(=O)[C@H](C)[C@@H](O[C@H]2C[C@@](C)(OC)[C@@H](O)[C@H](C)O2)[C@H](C)[C@@H](O[C@@H]2O[C@H](C)C[C@H](N(C)C)[C@H]2O)[C@](C)(O)C[C@@H](C)/C(=N\OCOCCOC)[C@H](C)[C@@H](O)[C@]1(C)O | 93
2. CC1=C(C(=O)O)N2C(=O)[C@@H](NC(=O)[C@H](N)c3ccc(O)cc3)[C@H]2SC1 | 65
3. CC[C@H]1OC(=O)[C@H](C)[C@@H](O[C@H]2C[C@@](C)(OC)[C@@H](O)[C@H](C)O2)[C@H](C)[C@@H](O[C@@H]2O[C@H](C)C[C@H](N(C)C)[C@H]2O)[C@](C)(O)C[C@@H](C)CN(C)[C@H](C)[C@@H](O)[C@]1(C)O | 85

Quick request: % Enhancement in bioavailability, Piperine + BE from Zingiber officinale for each listed item, please.
1. CC[C@H]1OC(=O)[C@H](C)[C@@H](O[C@H]2C[C@@](C)(OC)[C@@H](O)[C@H](C)O2)[C@H](C)[C@@H](O[C@@H]2O[C@H](C)C[C@H](N(C)C)[C@H]2O)[C@](C)(O)C[C@@H](C)C(=O)[C@H](C)[C@@H](O)[C@]1(C)O
2. N[C@@H]1CON=C1O
3. CN1C(C(=O)Nc2ccccn2)=C(O)c2ccccc2S1(=O)=O
4. O=C(O)Cc1ccccc1Nc1c(Cl)cccc1Cl
5. Nc1nc2c(ncn2COCCO)c(=O)[nH]1

Completion:
105
70
134
140
85

Prompt: For the compound CC1COc2c(N3CCN(C)CC3)c(F)cc3c(=O)c(C(=O)O)cn1c23 (stereo not drawn) , what % Enhancement in bioavailability, Piperine + BE from Zingiber officinale is on record?
Completion: 67

====

# test.context: rat, in vivo
endpoint: % Enhancement in bioavailability, Piperine + BE from Zingiber officinale (%)
Numbers only, in %.

1. Cc1onc(-c2ccccc2Cl)c1C(=O)N[C@@H]1C(=O)N2[C@@H]1SC(C)(C)[C@@H]2C(=O)O [Cloxacillin] | 90
2. C=CC[C@@H]1/C=C(\C)C[C@H](C)C[C@H](OC)[C@H]2O[C@@](O)(C(=O)C(=O)N3CCCC[C@H]3C(=O)O[C@H](/C(C)=C/[C@@H]3CC[C@@H](O)[C@H](OC)C3)[C@H](C)[C@@H](O)CC1=O)[C@H](C)C[C@@H]2OC [Tacrolimus] | 117
3. CCOC(=O)C1=C(COCCN)NC(C)=C(C(=O)OC)C1c1ccccc1Cl (centres unmarked) [Amlodipine] | 95

--- query ---
Prompt: For the compound CNC(=C[N+](=O)[O-])NCCSCc1ccc(CN(C)C)o1 [Ranitidine] , what % Enhancement in bioavailability, Piperine + BE from Zingiber officinale is on record?
Completion: 165
